Molecular target: T1, Plasmodium falciparum histidine-rich protein II (HRP-II) (Plasmodium falciparum, UniProt P05227 22-332)
T1 construct: Coating antigen of all ELISAs; also called HRP-II protein; MA-HRPII Ag protein
T1 sequence (looked up): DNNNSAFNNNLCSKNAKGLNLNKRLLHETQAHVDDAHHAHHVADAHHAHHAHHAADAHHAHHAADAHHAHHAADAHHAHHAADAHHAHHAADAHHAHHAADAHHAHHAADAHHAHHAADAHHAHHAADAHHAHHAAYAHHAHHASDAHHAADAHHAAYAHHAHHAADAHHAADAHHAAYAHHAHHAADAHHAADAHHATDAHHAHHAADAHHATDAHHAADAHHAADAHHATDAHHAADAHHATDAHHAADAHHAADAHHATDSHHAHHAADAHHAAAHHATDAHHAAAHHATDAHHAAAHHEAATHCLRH
Experiment: indirect ELISA, four antigen coating concentrations;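 note: optical density read across an antibody dilution series at each antigen coating level, curves plotted on log scale, KD derived as reciprocal of the averaged constant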
OBSERVABLE: Kd (nM)
Numbers only, in nM.

For orientation, consider the following solved cases.
Mutation 1-13 (antibody, mouse IgG2b, kappa, V domains shown, Mutation 1 as framework) VH: EVQLQQSGPEVVKPGASVKISCKASGSTLTDYYMNWVKQSHGKGLEWIGDINPIQGGTAYNQKFRDKATLTVDKSSNTAYMELRSLTSEDSALYYCTKGAEDYWGQGTTLTVSS VL: DVVLTQTPLSLSVTIGQPASISCKSSQSILYSQGKIYLNWFQQRPGQSPKRLMYQISKLEPGIPDRFSGSGSETDFTLKISRVEAEDLGVYYCLQGTYYPQTFGGGTKLEIKR ... 0.0865
Mutation 1-25 (antibody, mouse IgG2b, kappa, V domains shown, Mutation 1 as framework) VH: EVQLQQSGPEVVKPGASVKISCKASGYTITDYYMNWVKQSHGKGLEWIGDINPIQGGTAYNQKFRDKATLTVDKSSNTAYMELRSLTSEDSALYYCTRGAEDYWGQGTTLTVSS VL: DVVLTQTPLSLSVTIGQPASISCKSSQSLLYSQGKIYLNWFQQRPGQSPKRLMYQISKLEPGIPDRFSGSGSETDFTLKISRVEAEDLGVYYCLQGTYTPQTFGGGTKLEIKR ... 0.444

Now look at this one.
Name the recorded Kd for Mutation 1-24 (antibody, mouse IgG2b, kappa, V domains shown, Mutation 1 as framework) VH: EVQLQQSGPEVVKPGASVKISCKASGTTLTDYYMNWVKQSHGKGLEWIGDLNPIQGGTAYQQKFRDKATLTVDKSSNTAYMELRSLTSEDSALYYCTKGAEDYWGQGTTLTVSS VL: DVVLTQTPLSLSVTIGQPASISCKSSQSIIYSNGKIYLNWFQQRPGQSPKRLMYQISKLDPGIPDRFSGSGSETDFTLKISRVEAEDLGVYYCLQATYSPQTFGGGTKLEIKR . 0.127
